- Target Entity: PP1γ (Homo sapiens)
- Construct: His; made in house; host or cells: E. coli BL21(DE3)
- Sequence (P36873 whole entry): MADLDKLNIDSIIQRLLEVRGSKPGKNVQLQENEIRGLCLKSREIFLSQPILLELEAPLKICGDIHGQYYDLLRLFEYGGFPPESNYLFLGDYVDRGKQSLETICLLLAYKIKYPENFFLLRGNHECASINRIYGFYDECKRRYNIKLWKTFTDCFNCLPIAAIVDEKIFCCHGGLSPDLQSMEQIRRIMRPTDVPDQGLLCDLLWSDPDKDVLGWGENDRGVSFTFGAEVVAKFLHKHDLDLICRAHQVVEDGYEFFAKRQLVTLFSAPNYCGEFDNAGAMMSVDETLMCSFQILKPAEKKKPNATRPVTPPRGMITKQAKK
- Measurement Protocol: MRBLE:Pep concentration-dependent PP1 binding to bead-bound RVxF peptides
- Condition Description: bead-bound peptide, PP1 0-2,000 nM with anti-PP1 and Alexa 647 secondary antibody, 24 h at 4°C, 50 mM Tris pH 7.5, 150 mM NaCl, 0.1% TWEEN 20; median and SD across experimental replicates (n = 3); read-out: Kd, MRBLE-pep (Langmuir isotherm fit)
No end group written: not given here.
Metric: Kd (µM)
Use µM as the unit, but write only the number.

query: # input sequence: `AKNSRVTFSEDDEII` ; wanted: its Kd
result: 3.4
